molecular target: CypA^V6A (UniProt P62937 1-165, V6A); test: NMR titration
Sequence (P62937 whole entry V6A): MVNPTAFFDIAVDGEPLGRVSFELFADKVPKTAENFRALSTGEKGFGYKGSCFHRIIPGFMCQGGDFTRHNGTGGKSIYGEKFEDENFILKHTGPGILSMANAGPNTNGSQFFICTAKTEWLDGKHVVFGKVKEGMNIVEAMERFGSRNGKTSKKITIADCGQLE
Measurement name: Kd (µM)
Just the number please, in µM, no unit attached.

[in] Which Kd value is on record for GSFGPDLRAGD [FGP peptide] ?
[out] 82
